Kindly state IC50 for each of the entries shown.
# Assayed System: KRAS G12C mutant (Homo sapiens, UniProt P01116, G12C)
# Construct: 50 μM G12C K-Ras4B (1-169) protein and 1 mM BODIPY® FL GDP; His tag (N, cleaved yes); made in house; host or cells: E. coli BL21 (DE3)
# Method Summary: Inhibition of SOS1-mediated nucleotide (GDP-GTP) exchange reaction of KRAS G12C mutant, BODIPY FL GDP fluorescence
# Type: biochemical
# Particulars: preincubated 25° C. 4 hours with 25 nM KRAS G12C bound with BODIPY FL GDP; SOS1 100 nM, GppNHp 1 μM, 30 minutes
Numbers only, in nM.

{"Molecule": "C=CC(=O)N1CC(NC(=O)c2sc(CNc3cc(C(C)(C)C)c(Cl)cc3O)nc2C)C1", "Assayed System": "KRAS G12C mutant (Homo sapiens, UniProt P01116, G12C)", "Measurement Units": "nM", "Observed Result": 13}

Go through the items and report each one's IC50.
1. C=CC(=O)N1CC(N(C)C(=O)c2coc(CNc3cc(C(C)(C)C)c(Cl)cc3O)c2)C1
2. C=CC(=O)N1CC(N(C)C(=O)c2cc(CNc3cc(C(C)(C)C)c(Cl)cc3O)co2)C1
3. C=CC(=O)N1CC(NC(=O)c2coc(CNc3cc(C(C)(C)C)c(Cl)cc3O)n2)C1
4. C=CC(=O)N1CC(NC(=O)c2cnc(CNc3cc(C(C)(C)C)c(CC)cc3O)n2C)C1
5. C=CC(=O)N1CC(NC(=O)c2cnc(CNc3cc([Si](C)(C)C)c(Cl)cc3O)n2C)C1
6. C=CC(=O)N1CC(NC(=O)c2cnc(CNc3cc(C(=C)C(F)(F)F)c(Cl)cc3O)n2C)C1
7. C=CC(=O)N1CC(NC(=O)c2oc(CNc3cc(C(C)(C)C)c(Cl)cc3O)cc2C)C1

Reply text:
[1490, 80, 735, 84, 11, 522, 808]

Inquiry: Which measured IC50 value corresponds to C=CC(=O)N1CC(NC(=O)c2cnc(CNc3cc(C(C)C(F)(F)F)c(Cl)cc3O)n2C)C1 (stereo not drawn) ?
Reply text: 140

###

# Assayed System: KRAS G12C mutant (Homo sapiens, UniProt P01116, G12C)
# Construct: 50 μM G12C K-Ras4B (1-169) protein and 1 mM BODIPY® FL GDP; His tag (N, cleaved yes); made in house; host or cells: E. coli BL21 (DE3)
# Method Summary: Inhibition of SOS1-mediated nucleotide (GDP-GTP) exchange reaction of KRAS G12C mutant, BODIPY FL GDP fluorescence
# Format: biochemical
# Particulars: preincubated 25° C. 4 hours with 25 nM KRAS G12C bound with BODIPY FL GDP; SOS1 100 nM, GppNHp 1 μM, 30 minutes
Kindly state log10 of IC50 for each of the entries shown.
Scale type: logarithmic (base 10). Underlying IC50 unit: nM.

{"Smiles Data": "C=CC(=O)N1CC(NC(=O)c2sc(CNc3cc(C(C)(C)C)c(Cl)cc3O)nc2C(F)(F)F)C1", "log10 of IC50": 2.89}
{"Smiles Data": "CN(C)C/C=C/C(=O)N1CC(N(C)C(=O)c2ccc(CNc3cc(C(C)(C)C)c(Cl)cc3O)o2)C1", "log10 of IC50": 2.29}
{"Smiles Data": "C=CC(=O)N1CC(NC(=O)c2ncc(CNc3cc(C(C)(C)C)c(Cl)cc3O)o2)C1", "log10 of IC50": 2.98}

Go through the items and report each one's log10 of IC50.
1. C=CC(=O)N1CC(NC(=O)c2cnc(CNc3cc(C(C)(C)C)c(C)cc3O)n2C)C1
2. C=CC(=O)N1CC(NC(=O)c2c(C)nc(CNc3cc(C(C)(C)C)c(Cl)cc3O)n2CCC)C1

Reply text:
1.52
0.95

Go through the items and report each one's log10 of IC50.
1. C=CC(=O)N1CC(NC(=O)c2cnc(CNc3cc(C(C)(C)C)c(Cl)c(F)c3O)n2C)C1
2. C=CC(=O)N1CC(NC(=O)c2ccc(CNc3cc(C(C)(C)C)c(Br)cc3O)o2)C1

Reply text:
1. 1.84
2. 2.55

Go through the items and report each one's log10 of IC50.
1. C=CC(=O)N1CC(NC(=O)c2cnc(CNc3cc(CC)c(Cl)cc3O)n2C)C1
2. C=CC(=O)N1CC(NC(=O)c2cnc(CNc3cc4c(cc3O)CCC4(C)C)n2C)C1

Reply text:
[2.16, 2.34]

###

# Assayed System: G12C K-Ras4B (1-169) (Homo sapiens, UniProt P01116, G12C)
# Construct: G12C K-Ras4B (1-169) protein, which was a KRAS G12C mutant; His tag (N, cleaved yes); made in house; host or cells: E. coli BL21 (DE3)
# Method Summary: Binding to KRAS G12C mutant, compound binding rate by LC-MS
# Particulars: final compound concentration 2 μM, 1 μM protein, 2 hours at 25° C.

{"Compound": "C=CC(=O)N1CC(NC(=O)c2c(C)nc(CNc3cc(C(C)(C)C)c(Cl)cc3O)n2Cc2ccccc2)C1", "binding rate for G12C K-Ras4B (1-169)": "A (80% or more)"}
{"Compound": "C=CC(=O)N1CC(NC(=O)c2cnc(CNc3cc(C4(C)CC4(F)F)c(Cl)cc3O)n2C)C1 (centres unmarked)", "binding rate for G12C K-Ras4B (1-169)": "A (80% or more)"}
